Attribute: residual activity
# assayedTarget: Cyclin-dependent kinase 7/ cyclin H (Homo sapiens) (UniProt P51946+P50613)
# details: at 10 µM
Mention the unit after the number when you answer.

Answered examples (5):
compound: CCn1cnc2c(Nc3cccc(Cl)c3)nc(N[C@@H]3CCCC[C@@H]3N)nc21
assayedTarget: Cyclin-dependent kinase 7/ cyclin H (Homo sapiens) (UniProt P51946+P50613)
residual activity: -1%
//
compound: O=[N+]([O-])/C=C/c1ccc2c(c1)OCO2
assayedTarget: Cyclin-dependent kinase 7/ cyclin H (Homo sapiens) (UniProt P51946+P50613)
residual activity: 119%
//
compound: COc1cc2ncnc(Nc3ccc(OCc4ccccc4)cc3)c2cc1OC
assayedTarget: Cyclin-dependent kinase 7/ cyclin H (Homo sapiens) (UniProt P51946+P50613)
residual activity: 96%
//
compound: CC(C)[C@H](CO)Nc1nc(Nc2cccc(Cl)c2)c2ncn(C(C)C)c2n1
assayedTarget: Cyclin-dependent kinase 7/ cyclin H (Homo sapiens) (UniProt P51946+P50613)
residual activity: 1%
//
compound: C[S+]([O-])c1ccc(-c2nc(-c3ccc(F)cc3)c(-c3ccncc3)[nH]2)cc1 (stereo unspecified)
assayedTarget: Cyclin-dependent kinase 7/ cyclin H (Homo sapiens) (UniProt P51946+P50613)
residual activity: 100%

// below: residual activity requested for another compound
Need residual activity of O=C1c2ccccc2-c2nc3nnnn3nc21 , thanks.
129%
